# Experimental Protocol: Pharmacokinetic test in rats after intragastric administration (LC/MS/MS of plasma)
# Format: in vivo, Sprague-Dawley (SD) rats
# Protocol Conditions: both sexes, Sprague-Dawley, rat, plasma, po, SD rats, protocol 10.0 mg/kg, read-out: Half life t1/2 (converted)
Measured Attribute: half-life (h)

CN1C(=O)COc2c1cnc1ccc(Sc3nnc4c(F)cc(-c5cnn(C)c5)cn34)cc21: 5.55

(A) Cn1cc(-c2cc(F)c3nnc(Sc4ccc5ncc6c(c5c4)OCCO6)n3c2)cn1
(B) Cn1cc(-c2ccc3nnc(Sc4ccc5ncc(N6CCOCC6)c(F)c5c4)n3c2)cn1
Input: Look at A and B . Which one has the lower recorded half-life number? Indicate which entry you chose by stating its label.
Output: B
(B: 3.13 h, A: 7.54 h)
